Molecular target: T1, human GPC3 (human, UniProt P51654 25-563)
T1 construct: range 25-563; soluble analyte; also called soluble human GPC3; glypican 3
T1 sequence (P51654 25-563 limits assumed): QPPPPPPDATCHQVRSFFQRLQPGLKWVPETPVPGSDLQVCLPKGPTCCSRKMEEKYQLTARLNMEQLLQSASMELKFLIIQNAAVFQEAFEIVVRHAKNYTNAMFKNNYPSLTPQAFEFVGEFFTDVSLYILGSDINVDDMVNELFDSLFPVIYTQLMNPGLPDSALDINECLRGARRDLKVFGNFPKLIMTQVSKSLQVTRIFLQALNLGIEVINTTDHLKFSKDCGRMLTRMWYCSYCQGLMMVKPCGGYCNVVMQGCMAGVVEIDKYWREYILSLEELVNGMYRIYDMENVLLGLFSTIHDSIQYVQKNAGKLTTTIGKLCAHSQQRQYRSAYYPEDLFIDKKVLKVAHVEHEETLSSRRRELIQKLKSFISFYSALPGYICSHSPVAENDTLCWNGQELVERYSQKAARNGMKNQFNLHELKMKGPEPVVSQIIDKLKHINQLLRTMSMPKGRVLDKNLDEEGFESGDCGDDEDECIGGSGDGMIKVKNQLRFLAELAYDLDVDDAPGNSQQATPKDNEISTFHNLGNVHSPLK
Assay: SPR
For each of the binders below, state its Kd.
Answer by giving the amount and then stating its unit.

// Kd lookup, key: H0610-G1dh/none-Hi-Kn010G3/L0065-k0 (antibody, V domains shown, one-arm) VH: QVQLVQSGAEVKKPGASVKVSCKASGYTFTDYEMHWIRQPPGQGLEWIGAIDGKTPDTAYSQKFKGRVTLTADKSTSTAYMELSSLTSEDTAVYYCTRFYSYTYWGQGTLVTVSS VL: DIVMTQSPLSLPVTPGEPASISCRSSQSLVHSNRGTYLHWYQQKPGQAPRLLIYKVSNRFSGVPDRFSGSGSGTDFTLKISRVEAEDVGVYYCGQGTQVPYTFGQGTKLEIK 4.79 nM

Kd lookup needed for H0610-G1dh/none-Hi-Kn010G3/L0268-k0 (antibody, V domains shown, one-arm) VH: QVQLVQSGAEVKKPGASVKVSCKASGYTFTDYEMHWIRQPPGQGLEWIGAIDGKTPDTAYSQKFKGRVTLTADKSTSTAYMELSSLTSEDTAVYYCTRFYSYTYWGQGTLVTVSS VL: DIVMTQSPLSLPVTPGEPASISCRSSQSPVHSNRNTYIQWYQQKPGQAPRLLIYKVSNRFSGVPDRFSGSGSGTDFTLKISRVEAEDVGVYYCVQGTQVPYTFGQGTKLEIK , thanks. 0.0169 nM
